src = patent US20030186841

Tested on: E2C-HS2(Sp1) (synthetic)
protocol_description: EMSA
reported_property: Kd

Q: Please look up its Kd: GCCGCAGTGG (double strand) [e2c-hs2]
A: 25 nM

---

target_or_test_system: pmGTG (Zif268-C7 finger 2 variant) finger 2 helix -2 to 6 = SRSDELVR in Zif268-C7 (synthetic)
protocol_description: EMSA
assay_conditions: [7-9,26-28]
reported_property: Kd (nM)
Dear colleague, please return just the value in nM, with no unit written.

{"residue_sequence": "GGACGCCTCCGCGGGTTTTCCCGCGGAGGCGTCC [F2 site GAG]", "Kd, nM": 30}

Now consider a different sequence.
Q: Please look up its Kd: GGACGCCACCGCGGGTTTTCCCGCGGTGGCGTCC [F2 site GTG]
A: 15

---

Test system: E2C-HS2(F2) (synthetic)
protocol_description: EMSA
assay_conditions: ELISA binding good (Table 11)
reported_property: Kd

Q: Find Kd (E2C-HS2(F2) (synthetic)) for the entry GCCGCAGTGG (double strand) [e2c-hs2]
A: 70 nM

---

target_or_test_system: pGTC (Zif268-C7 finger 2 variant) finger 2 helix -2 to 6 = SDPGALVR in Zif268-C7 (synthetic) (UniProt P08046)
protocol_description: EMSA
assay_conditions: [none]
reported_property: pKd
In textbook form, pKd equals minus log to base ten of the concentration in mol/L.

Q: Please look up its pKd: GGACGCGACCGCGGGTTTTCCCGCGGTCGCGTCC [F2 site GTC]
A: 7.40

---

System: E2C-HS1(Sp1) (synthetic)
protocol_description: EMSA
reported_property: pKd
In textbook form, pKd equals minus log to base ten of the concentration in mol/L.

Q: Please look up its pKd: GGGGCCGGAG (double strand) [e2c-hs1]
A: 7.46

---

Test system: E2(F2) three-finger protein (synthetic)
protocol_description: EMSA
reported_property: pKd
In textbook form, pKd equals minus log to base ten of the concentration in mol/L.

Q: Please look up its pKd: GGGGGCGAGG (double strand) [e2]
A: 8.52

---

target_or_test_system: pmGTT (Zif268-C7 finger 2 variant) finger 2 helix -2 to 6 = STSGSLVR in Zif268-C7 (synthetic) (UniProt P08046)
protocol_description: EMSA
assay_conditions: [none]
reported_property: pKd
In textbook form, pKd equals minus log to base ten of the concentration in mol/L.

Q: Please look up its pKd: GGACGCAACCGCGGGTTTTCCCGCGGTTGCGTCC [F2 site GTT]
A: 8.30

---

target_or_test_system: pmGCG (Zif268-C7 finger 2 variant) finger 2 helix -2 to 6 = SRSDDLVR in Zif268-C7 (synthetic)
protocol_description: EMSA
assay_conditions: [none]
reported_property: Kd (nM)
Dear colleague, please return just the value in nM, with no unit written.

Q: Please look up its Kd: GGACGCCGCCGCGGGTTTTCCCGCGGCGGCGTCC [F2 site GCG]
A: 9

---

target_or_test_system: pmGAA (Zif268-C7 finger 2 variant) finger 2 helix -2 to 6 = SQSSNLVR in Zif268-C7 (synthetic)
protocol_description: EMSA
assay_conditions: [none]
reported_property: Kd

Q: Please look up its Kd: GGACGCTTCCGCGGGTTTTCCCGCGGAAGCGTCC [F2 site GAA]
A: 500 pM
